Reference source for all entries: IntAct's records for PubMed 25684205

B1: Kelch repeat and BTB domain-containing protein 7 (Homo sapiens), Q8WVZ9 (parent)
chain: MQSREDVPRSRRLASPRGGRRPKRISKPSVSAFFTGPEELKDTAHSAALLAQLKSFYDARLLCDVTIEVVTPGSGPGTGRLFSCNRNVLAAACPYFKSMFTGGMYESQQASVTMHDVDAESFEVLVDYCYTGRVSLSEANVQRLYAASDMLQLEYVREACASFLARRLDLTNCTAILKFADAFDHHKLRSQAQSYIAHNFKQLSRMGSIREETLADLTLAQLLAVLRLDSLDIESERTVCHVAVQWLEAAAKERGPSAAEVFKCVRWMHFTEEDQDYLEGLLTKPIVKKYCLDVIEGALQMRYGDLLYKSLVPVPNSSSSSSSSNSLVSAAENPPQRLGMCAKEMVIFFGHPRDPFLCYDPYSGDIYTMPSPLTSFAHTKTVTSSAVCVSPDHDIYLAAQPRKDLWVYKPAQNSWQQLADRLLCREGMDVAYLNGYIYILGGRDPITGVKLKEVECYSVQRNQWALVAPVPHSFYSFELIVVQNYLYAVNSKRMLCYDPSHNMWLNCASLKRSDFQEACVFNDEIYCICDIPVMKVYNPARGEWRRISNIPLDSETHNYQIVNHDQKLLLITSTTPQWKKNRVTVYEYDTREDQWINIGTMLGLLQFDSGFICLCARVYPSCLEPGQSFITEEDDARSESSTEWDLDGFSELDSESGSSSSFSDDEVWVQVAPQRNAQDQQGSL

- Variants of: B1
- ASSAY_CONTEXT: with gbrap_human GABARAP
METRIC_NAME: effect of a mutation on the interaction

F649A    with no effect
F122A    with no effect
Y559A    with no effect
